Reference for the values: ChEMBL document CHEMBL1155592

System: Bacillus cereus
procedure details: Antibacterial activity against Bacillus cereus ATCC 10702
Assay type: functional
measured quantity: MIC (µg/mL)
Express it in µg/mL; write the number only.

Examples from the recorded data:
* O=C(N[C@H](CO)[C@H](O)c1ccc([N+](=O)[O-])cc1)C(Cl)Cl | 8
* C[C@@H]1C[C@H](O)C2=C3[C@@H](C[C@@H]4C(C)(C)[C@H](O)CC[C@@]24C)Oc2ccc(C(=O)O)cc2C[C@@]31C | 128
* Cc1ccc(O)c2c1C(=O)CC2 | 64

We now examine a further compound.
Consider `Cc1ccc(O)c2c1C(=O)c1cccc(O)c1C2=O` . Its measured MIC is 32
